Target: T1, human LgR5 ECD (amino acids 22-557 fused to His-Fc expressed in a baculovirus system, or amino acids 22-558 … (human, UniProt O75473 22-557))
T1 construct: not shown: C-terminal His-tagged Fc
T1 sequence: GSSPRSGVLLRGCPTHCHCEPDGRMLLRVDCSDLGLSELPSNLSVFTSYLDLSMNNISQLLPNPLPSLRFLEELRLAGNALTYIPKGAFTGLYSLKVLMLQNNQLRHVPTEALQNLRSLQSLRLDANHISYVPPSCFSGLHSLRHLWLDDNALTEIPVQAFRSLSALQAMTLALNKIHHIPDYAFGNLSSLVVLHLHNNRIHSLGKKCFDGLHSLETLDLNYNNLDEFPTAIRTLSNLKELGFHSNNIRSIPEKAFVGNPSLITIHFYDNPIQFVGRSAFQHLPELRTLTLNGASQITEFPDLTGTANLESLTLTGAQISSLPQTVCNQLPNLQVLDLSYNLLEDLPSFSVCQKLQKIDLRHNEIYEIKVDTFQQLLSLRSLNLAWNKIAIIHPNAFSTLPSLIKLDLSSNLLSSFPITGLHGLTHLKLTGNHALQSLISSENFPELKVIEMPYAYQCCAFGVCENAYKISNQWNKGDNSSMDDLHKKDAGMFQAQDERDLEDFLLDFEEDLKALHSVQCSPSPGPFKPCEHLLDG
Experiment: SPR (BIAcore-3000), antibody captured by anti-human Fc, LgR5 ECD-Fc injected
Measured attribute: Kd (nM)
One number for each entry, in nM.

Binder | Kd (nM)
human antibody YW353 (antibody, human IgG1, kappa, V domains shown, also called huYW353) VH: EVQLVESGGGLVQPGGSLRLSCAASGFTFTSYSISWVRQAPGKGLEWVAEIYPPGGYTDYADSVKGRFTISADTSKNTAYLQMNSLRAEDTAVYYCAKARLFFDYWGQGTLVTVSS VL: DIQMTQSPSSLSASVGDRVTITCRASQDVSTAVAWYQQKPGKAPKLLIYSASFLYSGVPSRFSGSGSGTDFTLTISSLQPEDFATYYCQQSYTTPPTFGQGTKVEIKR | 1.6
monoclonal antibody 3G12 (antibody, V domains shown, The variable domains are the same in both forms; also called m3G12; mu3G12) VH: QVQLQQPGAEMVKPGASVKLSCKASVDTFNSYWMHWVKQRPGQGLEWIGEINPSNGRTNYIEKFKNRATVTVDKSSSTAFMQLSSLTSEDSAVYYCATGWYFDVWGAGTTVTVSS VL: DVVMTQTPLSLPVSLGDQASISCRSSQSLVHSNGNTYLQWYLQKPGQSPKLLIYKVSNRFSGVPDRFSGSGSGTDFTLKISRVEAEDLGIYFCSQSTHFPYTFGGGTKLEIKR | 72
monoclonal antibody 2H6 (antibody, V domains shown, The variable domains are the same in both forms; also called m2H6; mu2H6) VH: EVQLQQSGPELVKPGTSMKISCKASGYSFTGYTMNWVKQSHKNGLEWIGLINCYNGGTNYNQKFKGKATLTVDKSSSTAFMELLSLTSEDSAVYYCARGGSTMITPRFAYWGQGTLVTVSS VL: DIVMTQSPSSLTVTAGEKVTMSCKSSQSLLNSGNQKNYLTWFQQKPGQPPKLLIYWASTRESGVPDRFTGSGSGTDFTLTISNVQAEDLAVYYCQNDYSFPFTFGQGTKVEIKR | 208

Now look at this entry.
# Kd (binder: chimeric monoclonal antibody 8E11 (antibody, human IgG1, V domains shown, also called ch8E11; chimeric 8E11) VH: QVQLQQSGTELMKPGASVKISCKATGYTFSAYWIEWIKQRPGHGLEWIGEILPGSDSTDYNEKFKVKATFSSDTSSNTVYIQLNSLTYEDSAVYYCARGGHYGSLDYWGQGTTLKVSS VL: NIVLTQSPASLAVSLGQRATISCRASESVDNYGNSFMHWYQQKPGQPPKLLIYLASNLESGVPARFSGSGSRTDFTLTIDPVEADDAATYYCQQNYEDPFTFGSGTKVEIKR ) is 2.4
